- assay-target: PD-1/PD-L1 (Homo sapiens, UniProt Q9NZQ7)
- Construct: Recombinant human PD-L1 protein (19-238) with a His-tag at the C-terminus; purchased AcroBiosystems PD1-H5229 (PD-L1); PD1-H5257 (PD-1)
- Sequence (Q9NZQ7 19-238): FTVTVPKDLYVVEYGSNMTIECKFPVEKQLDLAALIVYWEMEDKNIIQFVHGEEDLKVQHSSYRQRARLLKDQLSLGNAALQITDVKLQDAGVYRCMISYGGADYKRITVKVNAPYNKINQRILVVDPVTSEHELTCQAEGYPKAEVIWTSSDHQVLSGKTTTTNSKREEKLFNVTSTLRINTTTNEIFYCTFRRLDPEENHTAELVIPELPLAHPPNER
- protocol-details: PD-1/PD-L1 homogenous time-resolved fluorescence (HTRF) binding assay
- condition-description: Table 6, class symbols
pIC50: −log10 of the molar value. Where a name gives a salt, the structure may show the parent alone.
Form field: pIC50 (one value per entry).

> print(dat)
                                   molecule                              assay.target  observed.value
1  Cc1c(-c2ccccc2)cccc1-c1nc2cc3c(cc2o1)OC[C@@H](C(=O)O)NC3  PD-1/PD-L1 (Homo sapiens, UniProt Q9NZQ7)    6.00 to 7.00
2  Cc1c(-c2ccccc2)cccc1-c1nc2cc(CN3CCCC3(C)C(=O)O)c(OCC(F)(F)F)cc2o1 (centres unmarked)  PD-1/PD-L1 (Homo sapiens, UniProt Q9NZQ7)    7.00 to 8.00
3  CSc1cc2oc(-c3cccc(-c4ccccc4C#N)c3C#N)nc2cc1CN1CCC[C@H]1C(=O)O  PD-1/PD-L1 (Homo sapiens, UniProt Q9NZQ7)    7.00 to 8.00

We next turn to a different molecule, shown below.
May I ask what pIC50 has been recorded for Cc1c(-c2ccccc2)cccc1-c1nc2cc(CN[C@@H](Cc3ccc(O)cc3)C(=O)O)c(OC(F)F)cc2o1 [Example 32, hydrochloride] ?
8.00 to 10.00
